B1: minF1; a variant is named by its letters at N, in order (parent)
chain: GAGACCGCAACTGAAAAGTTGTTNNNNAANNNNGGNTNNATTTCTGCACGTAGAAGCAAAAGGC

Variants of: B1
assay-method-text: fraction ligated after 30 min (ligated reads / total reads); higher = more ligase activity
condition-summary: with F1*subA RNA substrate (template-directed ligation), 42 °C
Record form. Attribute: fraction ligated. Fill in for each entry.
Respond with the number and no other words.

# input Requested read-out: fraction ligated. Entry: `ATAGTATGTGA`
# output 0.00386

# input Requested read-out: fraction ligated. Entry: TCAAGATGTGA T23A A29T
# output 0.00239

# input Requested read-out: fraction ligated. Entry: `ACAATGATGTG`
# output 0.00556

# input Requested read-out: fraction ligated. Entry: ATCGGATGTGA A29G
# output 0.00359

# input Requested read-out: fraction ligated. Entry: `ACGATGATGTG`
# output 0.00517

# input Requested read-out: fraction ligated. Entry: ATCAAGGTGTG A28G
# output 0.0012

# input Requested read-out: fraction ligated. Entry: `ATGAGGAGTGA`
# output 0.00532

# input Requested read-out: fraction ligated. Entry: TCGATGGATGA T23A
# output 0.00236

# input Requested read-out: fraction ligated. Entry: TAGATGGATGA T23A
# output 0.00368

# input Requested read-out: fraction ligated. Entry: TGAAGGATTGA A29T
# output 0.0036

# input Requested read-out: fraction ligated. Entry: ATAGATGAGTT G34T T37G
# output 0.00193

# input Requested read-out: fraction ligated. Entry: TCAGGGATTGA A29T
# output 0.00182

# input Requested read-out: fraction ligated. Entry: TAGAGATGTGA T23A A29T
# output 0.00334

# input Requested read-out: fraction ligated. Entry: TAAAGATGTGA A28T A29G
# output 0.00323

# input Requested read-out: fraction ligated. Entry: TCAGATGGGTT G34A T37G
# output 0.00135

# input Requested read-out: fraction ligated. Entry: `ATAAGATGTGA`
# output 0.00253

# input Requested read-out: fraction ligated. Entry: ATCAAGGAGTT G34T T37G
# output 0.00324

# input Requested read-out: fraction ligated. Entry: `ACAGTGAGTGA`
# output 0.00274

# input Requested read-out: fraction ligated. Entry: `TCAGTATGTGA`
# output 0.00458

# input Requested read-out: fraction ligated. Entry: `ATGATGATGTA`
# output 0.00247

# input Requested read-out: fraction ligated. Entry: TCAGATGAGTT G34T T37G A40G
# output 0.00127

# input Requested read-out: fraction ligated. Entry: `CAGAGGATTGA`
# output 0.00276

# input Requested read-out: fraction ligated. Entry: `TCAGATGTTGA`
# output 0.0015

# input Requested read-out: fraction ligated. Entry: CAGATGGAGTA G34T
# output 0.00644

# input Requested read-out: fraction ligated. Entry: TAGAGATGTGA A28T A29G
# output 0.00491

# input Requested read-out: fraction ligated. Entry: TCAAGGATGTA A29T
# output 0.00204

# input Requested read-out: fraction ligated. Entry: AAAAGATGTGA A28T A29G
# output 0.00466

# input Requested read-out: fraction ligated. Entry: ATGATGGAGTT G34T T37G A40G
# output 0.0011

# input Requested read-out: fraction ligated. Entry: TCAGGATGTGA T23A A29G
# output 0.00232

# input Requested read-out: fraction ligated. Entry: TCAGATGGGTT T23A G34T T37G A40G
# output 0.00157

# input Requested read-out: fraction ligated. Entry: `ATCATGGAGTA`
# output 0.00426

# input Requested read-out: fraction ligated. Entry: ATCAATGTGTG A28G
# output 0.00324

# input Requested read-out: fraction ligated. Entry: `ATCAGGTGTGA`
# output 0.00443

# input Requested read-out: fraction ligated. Entry: TCGATGGAGTA G34T
# output 0.143

# input Requested read-out: fraction ligated. Entry: TCAGATGGGGT G34A G35T T37G A40T
# output 0.00121

# input Requested read-out: fraction ligated. Entry: ATCAAAATGTG A28G
# output 0.00629

# input Requested read-out: fraction ligated. Entry: CAAAGATGTGA A29G
# output 0.00439

# input Requested read-out: fraction ligated. Entry: ATCGGATGTGA A28T A29G
# output 0.012

# input Requested read-out: fraction ligated. Entry: ACAGATGGGTT G34A G35T T37G
# output 0.000596

# input Requested read-out: fraction ligated. Entry: ATCGAGGAGTT G34T T37G A40G
# output 0.000736

# input Requested read-out: fraction ligated. Entry: TAAAGATGTGA T23A A29G
# output 0.00271

# input Requested read-out: fraction ligated. Entry: ATCAAAGAGTA A28G
# output 0.0017

# input Requested read-out: fraction ligated. Entry: TCGATGGAGTG T23A
# output 0.02

# input Requested read-out: fraction ligated. Entry: TAGAGGATGTG T23A
# output 0.00675

# input Requested read-out: fraction ligated. Entry: `TAGAGATGTGA`
# output 0.00183

# input Requested read-out: fraction ligated. Entry: `ATCAAGGTTGA`
# output 0.00224

# input Requested read-out: fraction ligated. Entry: `TCGATATGTGA`
# output 0.00214

# input Requested read-out: fraction ligated. Entry: TCAGAATGTGA T23A
# output 0.00396

# input Requested read-out: fraction ligated. Entry: CGAAGGATGTG A29T
# output 0.0152

# input Requested read-out: fraction ligated. Entry: `ATAGATGAGTA`
# output 0.00311

# input Requested read-out: fraction ligated. Entry: AGAAGGATGTG T23A A29T
# output 0.00517

# input Requested read-out: fraction ligated. Entry: TCAGTGGAGTT T23A G34T T37G A40G
# output 0.000501

# input Requested read-out: fraction ligated. Entry: ACAGATGGGTA G34T
# output 0.00288

# input Requested read-out: fraction ligated. Entry: ATCAAAGTGTA A28G
# output 0.00412

# input Requested read-out: fraction ligated. Entry: ACAATGGAGTT G34T T37G A40G
# output 0.00101

# input Requested read-out: fraction ligated. Entry: AAGATGGAGTA G34T
# output 0.00267
